biological target: UniProt P22607; assay: FGFR Enzymatic Assay (peptide phosphorylation, FRET), FGFR3; type: biochemical; conditions: IC50 ratio showing FGFR3 selectivity; pre-incubated for 4 hours
Sequence (P22607 23-806): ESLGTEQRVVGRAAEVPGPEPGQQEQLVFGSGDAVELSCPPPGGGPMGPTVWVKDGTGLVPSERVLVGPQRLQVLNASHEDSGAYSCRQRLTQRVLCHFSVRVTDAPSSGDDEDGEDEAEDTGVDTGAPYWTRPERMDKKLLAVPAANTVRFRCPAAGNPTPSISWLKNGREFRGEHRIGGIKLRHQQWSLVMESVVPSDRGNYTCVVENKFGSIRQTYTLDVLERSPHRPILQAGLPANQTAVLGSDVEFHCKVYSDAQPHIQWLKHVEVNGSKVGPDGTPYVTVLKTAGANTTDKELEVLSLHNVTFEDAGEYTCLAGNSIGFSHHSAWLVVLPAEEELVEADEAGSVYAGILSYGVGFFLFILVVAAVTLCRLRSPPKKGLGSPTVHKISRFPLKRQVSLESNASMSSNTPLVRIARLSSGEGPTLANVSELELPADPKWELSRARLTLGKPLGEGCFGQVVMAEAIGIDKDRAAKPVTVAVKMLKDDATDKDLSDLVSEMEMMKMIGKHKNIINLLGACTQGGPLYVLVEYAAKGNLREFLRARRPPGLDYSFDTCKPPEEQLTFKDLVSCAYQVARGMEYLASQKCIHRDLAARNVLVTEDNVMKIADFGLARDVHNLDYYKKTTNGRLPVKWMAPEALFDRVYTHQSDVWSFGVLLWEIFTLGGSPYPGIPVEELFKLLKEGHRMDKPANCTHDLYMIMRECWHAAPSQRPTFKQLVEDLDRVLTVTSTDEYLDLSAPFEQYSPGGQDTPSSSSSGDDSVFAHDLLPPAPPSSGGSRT
reported property: FGFR1/FGFR3

Consider the worked cases shown below.
- molecule: "COc1cc(OC)c(F)c(N2Cc3cnc(-c4cn(C)nc4C)cc3N(c3ccc(F)c(F)c3)C2=O)c1F"
  test target: "UniProt P22607"
  FGFR1/FGFR3: ">3"
- molecule: "COC(=O)N1CCC(N2C(=O)N(c3c(F)c(OC)cc(OC)c3F)Cc3cnc(-c4cn(C)nc4C)cc32)CC1"
  test target: "UniProt P22607"
  FGFR1/FGFR3: ">5"
- molecule: "COc1cc(OC)c(F)c(N2Cc3cnc(-c4cn(C)nc4C)cc3N(c3ncccn3)C2=O)c1F"
  test target: "UniProt P22607"
  FGFR1/FGFR3: ">3"
- molecule: "COc1cc(OC)c(F)c(N2Cc3cnc(-c4cn(C)nc4C)cc3N(Cc3cncnc3)C2=O)c1F"
  test target: "UniProt P22607"
  FGFR1/FGFR3: ">5"
- molecule: "CCN1C(=O)N(c2c(F)c(OC)cc(OC)c2F)Cc2cnc(-c3ccc(CN4CC[C@H](C#N)C4)cc3)cc21"
  test target: "UniProt P22607"
  FGFR1/FGFR3: ">5"
- molecule: "CCN1C(=O)N(c2c(F)c(OC)cc(OC)c2F)Cc2cnc(-c3cn(CC)nc3C)cc21"
  test target: "UniProt P22607"
  FGFR1/FGFR3: ">5"
- molecule: "COc1cc(OC)c(F)c(N2Cc3cnc(-c4cn(C)nc4C)cc3N(c3cncc(C)n3)C2=O)c1F"
  test target: "UniProt P22607"
  FGFR1/FGFR3: ">5"
- molecule: "COc1cc(OC)c(F)c(N2Cc3cnc(-c4cn(C)nc4C)cc3N(C3CCOC3)C2=O)c1F (stereo not drawn)"
  test target: "UniProt P22607"
  FGFR1/FGFR3: ">5"
- molecule: "CCN1C(=O)N(c2c(F)c(OC)cc(OC)c2F)Cc2cnc(-c3ccc(C(=O)NC(C)C)nc3)cc21"
  test target: "UniProt P22607"
  FGFR1/FGFR3: ">5"
- molecule: "COc1cc(OC)c(F)c(N2Cc3cnc(-c4cncc(N5CCOCC5)c4)cc3C3(CC3)C2=O)c1F"
  test target: "UniProt P22607"
  FGFR1/FGFR3: ">3"

Data request: Print UniProt P22607 FGFR1/FGFR3 for `CCN1C(=O)N(c2c(F)c(OC)cc(OC)c2F)Cc2cnc(-c3ccc(C4(C#N)CCC4)cc3)cc21` .
Data returned: >5

Data request: Print UniProt P22607 FGFR1/FGFR3 for `COc1cc(OC)c(F)c(N2Cc3cnc(-c4cn(C)nc4C)cc3N(C3(C#N)CC3)C2=O)c1F` .
Data returned: >5

Data request: Print UniProt P22607 FGFR1/FGFR3 for `COc1cc(OC)c(F)c(N2Cc3cnc(-c4cn(C)nc4C)cc3N(Cc3csc(C)n3)C2=O)c1F` .
Data returned: >5

Data request: Print UniProt P22607 FGFR1/FGFR3 for COc1cc(OC)c(F)c(N2Cc3cnc(-c4cnn(CC5CCCS(=O)(=O)N5)c4)cc3C3(CC3)C2=O)c1F (stereo not drawn) .
Data returned: >5

Data request: Print UniProt P22607 FGFR1/FGFR3 for `CCCNC(=O)c1ccc(-c2cc3c(cn2)CN(c2c(F)c(OC)cc(OC)c2F)C(=O)N3CC)cn1` .
Data returned: >5
